All figures here come from paper PMC11608337.

Please go through the items and note down their Kd.
Target: T1, RING domain of IRF2BP2 (residues 498-578) (UniProt Q7Z5L9 498-578)
T1 sequence (looked up): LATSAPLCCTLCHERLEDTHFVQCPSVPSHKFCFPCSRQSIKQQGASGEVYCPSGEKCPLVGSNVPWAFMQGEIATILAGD
Assay: ITC
One number for each entry, in µM.

Binder	Assay endpoint	Unit	Reported value
GPGTPTRSSVITSARELHYG (peptide, UniProt Q05516 279-298, looked up) [ZBTB16-L (residues 279-298)]	Kd	µM	7.21
RGSVITSA [mouse ZBTB16 peptide (residues 285-292, RGSVITSA)]	Kd	µM	16.8
RSVLVHAG [NFAT1 peptide (residues 782-789, RSVLVHAG)]	Kd	µM	514
RASVIKKT [IRF2 peptide (residues 331-338, RASVIKKT)]	Kd	µM	6.45

Prompt line: Entry RSSVITSA [RxSVI motif-containing peptide of ZBTB16 (residues 285-292, RSSVITSA)] has what Kd?
Response line: 12.6
